- assay.name: Single dose IV PK in plasma and thigh homogenate, thigh infection model
- Assay type: in vivo, mice
- condition.notes: female, ICR, mouse; plasma; 12.5 mg/kg IV single dose
property.label: AUC(0-t)

AUC(0-t) in this record for Nc1nnc(SCC(=O)NC(Cn2cc(C(=O)O)nn2)B(O)O)s1 (stereo not shown) : 7100 ng·h/mL

====

- assay.name: Single dose IV PK in plasma and thigh homogenate, thigh infection model
- Type: in vivo, mice
- condition.notes: female, ICR, mouse; thigh homogenate; 12.5 mg/kg IV single dose
property.label: AUC(0-inf) (ng·h/mL)
A number alone suffices; assume ng·h/mL.

So for Nc1nnc(SCC(=O)NC(Cn2cc(C(=O)O)nn2)B(O)O)s1 (stereo not shown) , the logged AUC(0-inf) turned out to be 1000

====

- System: E. coli pLTCF2
- assay.name: MIC with cefepime, agar microdilution, CLSI
- Format: cell-based
- condition.notes: compound fixed at 4 ug/ml
property.label: MIC of cefepime in combination with compound

1) O=C(CNn1cnnc1S)N[C@@H](Cn1cc(C(=O)O)nn1)B(O)O: < 0.25 µg/mL

# MIC of cefepime in combination with compound measured on E. coli pLTCF2 for item O=C(CS)N[C@@H](Cn1cc(C(=O)O)nn1)B(O)O = < 0.25 µg/mL

Response field MIC of cefepime in combination with compound (E. coli pLTCF2) for item O=C(CSC1=NCCS1)NC(Cn1cc(C(=O)O)nn1)B(O)O (stereo not shown) : < 0.25 µg/mL

Measured MIC of cefepime in combination with compound for this entry O=C(CSc1ccccn1)N[C@@H](Cn1cc(C(=O)O)nn1)B(O)O on E. coli pLTCF2: < 0.25 µg/mL

// assay E. coli pLTCF2, entry Nc1nnc(SCC(=O)NC(Cn2cc(C(=O)O)nn2)B(O)O)s1 (stereo not shown) , MIC of cefepime in combination with compound value = < 0.25 µg/mL

Observed MIC of cefepime in combination with compound on E. coli pLTCF2, entry Cc1nnc(SCC(=O)N[C@@H](Cn2cc(C(=O)O)nn2)B(O)O)[nH]1 , equals < 0.25 µg/mL

MIC of cefepime in combination with compound for E. coli pLTCF2 with input O=C(CNc1nnc(S)s1)N[C@@H](Cn1cc(C(=O)O)nn1)B(O)O equals < 0.25 µg/mL

====

- assay.name: Single dose IV PK in plasma and thigh homogenate, thigh infection model
- Assay type: in vivo, mice
- condition.notes: female, ICR, mouse; plasma; 12.5 mg/kg IV single dose
property.label: C0

Measured C0, Nc1nnc(SCC(=O)NC(Cn2cc(C(=O)O)nn2)B(O)O)s1 (stereo not shown) [MB076] : 35600 ng/mL

====

- System: E. coli pLTCF1
- assay.name: MIC with cefepime, agar microdilution, CLSI
- Type: cell-based
- condition.notes: compound fixed at 4 ug/ml; CTX-M group 9
The entries below come with measured MIC of cefepime in combination with compound values attached.
// units = µg/mL; emit number, no label

Reference set, count: 2
1) O=C(CS)N[C@@H](Cn1cc(C(=O)O)nn1)B(O)O: 1
2) O=C(CNc1nnc(S)s1)N[C@@H](Cn1cc(C(=O)O)nn1)B(O)O: 0.5

We now examine a further molecule.
Record O=C(CSC1=NCCS1)NC(Cn1cc(C(=O)O)nn1)B(O)O (stereo not shown) . Reported MIC of cefepime in combination with compound: 0.5

====

- assay.name: Single dose IV PK in plasma and thigh homogenate, thigh infection model
- Assay type: in vivo, mice
- condition.notes: female, ICR, mouse; thigh homogenate; 25 mg/kg IV single dose; read-out: Vss
property.label: Vd (L/kg)
Please give a number only; it is taken to be in L/kg.

Record summary for Nc1nnc(SCC(=O)NC(Cn2cc(C(=O)O)nn2)B(O)O)s1 (stereo not shown) [MB076] : reported Vd = 1.38

====

- assay.name: Single dose IV PK in plasma and thigh homogenate, thigh infection model
- Assay type: in vivo, mice
- condition.notes: female, ICR, mouse; thigh homogenate; 25 mg/kg IV single dose
property.label: AUC(0-t) (ng·h/mL)
Please respond with the number in ng·h/mL and leave the unit unwritten.

Sample Nc1nnc(SCC(=O)NC(Cn2cc(C(=O)O)nn2)B(O)O)s1 (stereo not shown) [MB076] ; AUC(0-t) observed: 1700

====

- assay.name: Single dose IV PK in plasma and thigh homogenate, thigh infection model
- Assay type: in vivo, mice
- condition.notes: female, ICR, mouse; plasma; 100 mg/kg IV single dose
property.label: AUC(0-t) (µg·h/mL)
Quick note: give the figure in µg·h/mL, leave out the unit.

According to the records, this compound Nc1nnc(SCC(=O)NC(Cn2cc(C(=O)O)nn2)B(O)O)s1 (stereo not shown) displays AUC(0-t) of 103

====

- assay.name: Single dose IV PK in plasma and thigh homogenate, thigh infection model
- Assay type: in vivo, mice
- condition.notes: female, ICR, mouse; plasma; 50 mg/kg IV single dose
property.label: clearance (mL/min/kg)
// units = mL/min/kg; emit number, no label

In plain terms, Nc1nnc(SCC(=O)NC(Cn2cc(C(=O)O)nn2)B(O)O)s1 (stereo not shown) has a documented clearance of 21.3

====

Measured MIC of cefepime in combination with compound values are reported for all entries that follow.
- Test system: K. pneumoniae ST17
- assay.name: MIC with cefepime, agar microdilution, CLSI
- Type: cell-based
- condition.notes: compound fixed at 4 ug/ml; KPC-2, TEM, SHV, CTX-M-Group 1
Report the value in µg/mL with no unit label.

1) O=C(CSc1ccccn1)N[C@@H](Cn1cc(C(=O)O)nn1)B(O)O [PCF_042]: 32
2) Cc1nnc(SCC(=O)N[C@@H](Cn2cc(C(=O)O)nn2)B(O)O)[nH]1 [PCF_038]: 32
3) O=C(CNn1cnnc1S)N[C@@H](Cn1cc(C(=O)O)nn1)B(O)O [PCF_039]: 16
4) O=C(CSC1=NCCS1)NC(Cn1cc(C(=O)O)nn1)B(O)O (stereo not shown) [PCF_040]: 32
5) Nc1nnc(SCC(=O)NC(Cn2cc(C(=O)O)nn2)B(O)O)s1 (stereo not shown) [MB076]: 16
6) O=C(CNc1nnc(S)s1)N[C@@H](Cn1cc(C(=O)O)nn1)B(O)O [PCF_041]: 16

Field: next compound
Form field MIC of cefepime in combination with compound, entry O=C(CS)N[C@@H](Cn1cc(C(=O)O)nn1)B(O)O [PCF_043] : 32

====

- assay.name: Single dose IV PK in plasma and thigh homogenate, thigh infection model
- Type: in vivo, mice
- condition.notes: female, ICR, mouse; plasma; 50 mg/kg IV single dose; read-out: Vss
property.label: Vd
Provide a numeric answer, followed by its unit.

Per the records, this molecule ( Nc1nnc(SCC(=O)NC(Cn2cc(C(=O)O)nn2)B(O)O)s1 (stereo not shown) ) has Vd equal to 0.35 L/kg
